test system: Fibroblast; experiment: Multiplex assay against human fibroblast; format: toxicity, cell-based; settings: 12 h, 1 µM, compound concentration 1 uM, replicate 2
Kindly state Population Normal (%) for each of the entries shown.
Reply with just the number (in %).

**Q:** Notebook: pull reported Population Normal (%) for Fibroblast, entry "N#Cc1cc(F)cc(-c2nc(-c3ccc(F)cn3)no2)c1"
**A:** 93

**Q:** Notebook: pull reported Population Normal (%) for Fibroblast, entry "CN(C)C(=O)Cn1cc(-c2ccc(-c3cncc4ccccc34)cc2)cn1"
**A:** 94

**Q:** Notebook: pull reported Population Normal (%) for Fibroblast, entry Cc1sc2c(c1C)C(c1ccc(Cl)cc1)=N[C@@H](CC(=O)NCCCCCCCCNC(=O)COc1cccc3c1C(=O)N(C1CCC(=O)NC1=O)C3=O)c1nnc(C)n1-2 (some centres undefined)
**A:** 93

**Q:** Notebook: pull reported Population Normal (%) for Fibroblast, entry O=C(NCCN1CCC(n2c(=O)[nH]c3cc(Cl)ccc32)CC1)c1ccc(F)cc1 [HALOPEMIDE]
**A:** 92
